Recorded values, source PubChem BioAssay (NCI).

Could you please report measured growth inhibition for the items listed next?
Test: NCI Yeast Anticancer Drug Screen. Data for the rad50 strain (AID 155);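 further: 0% = growth of vehicle-only cultures of the same strain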
Conditions: S. cerevisiae rad50 strain growth inhibition; at 50.0 µM; hits give high values
Compounds without any hit were thinned out: in the full panel of roughly 79,000, 15% have a hit.
Give the value in % but do not write % after it.

**Query** Please look up its growth inhibition: CCCCNC(=O)C1CCC(CC2CCCCC2)CC1 (stereo not given)
**Result** 22.8

**Query** Please look up its growth inhibition: "CC(=O)CCc1cccc([N+](=O)[O-])c1"
**Result** -17.6

**Query** Please look up its growth inhibition: O=C1/C(=C/C=C/c2ccccc2)CCC1CNc1ccc(Br)cc1 (stereo not given)
**Result** -20.2

**Query** Please look up its growth inhibition: "CCCCCCCCCCNCC(=O)O"
**Result** -11.1

**Query** Please look up its growth inhibition: CC(=O)Nc1ccc(C(=O)NN2C(=O)C(Cl)C2c2ccc([N+](=O)[O-])cc2)cc1 (stereo not given)
**Result** -0.05

###

Experiment: NCI Yeast Anticancer Drug Screen. Data for the sgs1 mgt1 strain (AID 161);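 further: 0% = growth of cultures given vehicle only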
Details: S. cerevisiae sgs1 mgt1 strain, at 50.0 µM
This is part of a sample that, as a whole, favours compounds with a hit. Of some 79,000 tested, about 15% had one in any assay. Active and inactive are the calls of the source. Cut-off read from the data, not from the text of the source: active = growth inhibition above about 70%; inactive = the rest.
Would you mind answering with one of these outcomes? active, inactive

**Query** Would you mind telling me which call this test gave "Nc1ncc2c(n1)CSCC2=O" ?
**Result** inactive

**Query** Would you mind telling me which call this test gave Cc1nc(-c2ccccc2)ncc1C(O)CN(C)C (stereo not given) ?
**Result** inactive

**Query** Would you mind telling me which call this test gave "COC(=O)c1cc2ccccc2cc1Nc1ccc2ccccc2c1" ?
**Result** inactive

**Query** Would you mind telling me which call this test gave "NNC(=O)C(=O)N/N=C(\CCC(=O)Nc1ccc(Cl)cc1)Cc1nc2ccccc2s1" ?
**Result** inactive

**Query** Would you mind telling me which call this test gave "Cn1c2ccccc2c2[nH]c3ccccc3c(=O)c21" ?
**Result** inactive

**Query** Would you mind telling me which call this test gave CCC(=O)OCCCCC1CCCO1 (stereo not given) ?
**Result** inactive

**Query** Would you mind telling me which call this test gave "CC(C)C(=O)/C=C/c1ccc(Br)cc1" ?
**Result** inactive

**Query** Would you mind telling me which call this test gave NC1C(=O)Nc2ccccc21 (stereo not given) ?
**Result** inactive

**Query** Would you mind telling me which call this test gave "CC(=O)OCCOCNC(=S)N/N=C(\C)c1cccs1" ?
**Result** inactive

**Query** Would you mind telling me which call this test gave "CCc1c([N+](=O)[O-])c2cc([N+](=O)[O-])ccc2n1C" ?
**Result** inactive

**Query** Would you mind telling me which call this test gave "c1ccc2c3[n+](ccc2c1)CCC[n+]1ccc2ccccc2c1-3" ?
**Result** active

**Query** Would you mind telling me which call this test gave "Cc1nnc(N)s/c1=N/O" ?
**Result** inactive

**Query** Would you mind telling me which call this test gave "O=C(O)c1cc2oc3ccccc3c2cc1O" ?
**Result** inactive

**Query** Would you mind telling me which call this test gave O=C(CCN1C(=O)CC1c1ccco1)N1CCOCC1 (stereo not given) ?
**Result** inactive

**Query** Would you mind telling me which call this test gave "O=C(O)c1ccc(CS(=O)(=O)c2ccccc2C(=O)O)cc1" ?
**Result** inactive

**Query** Would you mind telling me which call this test gave "NS(=O)(=O)c1ccc(NC(=O)CCl)cc1" ?
**Result** inactive

**Query** Would you mind telling me which call this test gave "C[N+]1(CCc2ccccc2)CCOCC1" ?
**Result** inactive

**Query** Would you mind telling me which call this test gave "N#CC1(c2ccccc2)C(c2ccccc2)=C1c1ccccc1" ?
**Result** inactive

**Query** Would you mind telling me which call this test gave COC1/C=C\OC2(C)Oc3c(C)c(O)c4c(O)c(c5sc(N)nc5c4c3C2=O)NC(=O)/C(C)=C\C=C\C(C)C(O)C(C)C(O)C(C)C(OC(C)=O)C1C (stereo not given) ?
**Result** inactive

**Query** Would you mind telling me which call this test gave "Cc1cccc(NC(=O)CCl)c1C" ?
**Result** inactive

**Query** Would you mind telling me which call this test gave "Cc1ccc(S(=O)(=O)N2CCSCCSCCSCCSCC2)cc1" ?
**Result** inactive

**Query** Would you mind telling me which call this test gave "NNC(=O)C(=O)NN=C(C(Cl)(Cl)CO)C(Cl)(Cl)CO" ?
**Result** inactive

**Query** Would you mind telling me which call this test gave "CSc1ccc(NC(=O)Nc2ccc(Cl)cc2C(=O)c2ccccc2)cc1" ?
**Result** active

**Query** Would you mind telling me which call this test gave "O=C1CCCC/C1=C\c1ccc([N+](=O)[O-])cc1" ?
**Result** inactive

**Query** Would you mind telling me which call this test gave Cc1ccc(O)c(C2CC(C#N)CCN2C)c1 (stereo not given) ?
**Result** inactive

**Query** Would you mind telling me which call this test gave "c1ccc(-c2ccc(-c3cc4ccccc4c4ccccc34)cc2)cc1" ?
**Result** inactive

**Query** Would you mind telling me which call this test gave Cc1ccc(NC(=S)N2CCCCC2C)cc1C (stereo not given) ?
**Result** inactive

**Query** Would you mind telling me which call this test gave CCCCC(CC)COC(=O)CCl (stereo not given) ?
**Result** inactive

**Query** Would you mind telling me which call this test gave "CCOC(=O)C(NC(=O)Cc1ccccc1)C(=O)OCC" ?
**Result** inactive

**Query** Would you mind telling me which call this test gave "Cc1ccsc1/C=N/Nc1ncccn1" ?
**Result** inactive

**Query** Would you mind telling me which call this test gave COc1ccc2[nH]cc(CC(NC(C)=O)C(=O)O)c2c1 (stereo not given) ?
**Result** inactive

**Query** Would you mind telling me which call this test gave "Nc1ccccc1N=Cc1c(O)c2ccccc2oc1=O" ?
**Result** inactive

**Query** Would you mind telling me which call this test gave "CCN/C(C)=C\C(=O)OCC" ?
**Result** inactive

**Query** Would you mind telling me which call this test gave "Cc1cc(=O)n(-c2cncc(Br)c2)[nH]1" ?
**Result** inactive

**Query** Would you mind telling me which call this test gave "Nc1ccc(O)cc1" ?
**Result** inactive

**Query** Would you mind telling me which call this test gave "CNc1nc2c(C)ccc3nc(N(C)C)nc-3c2n1C" ?
**Result** inactive

**Query** Would you mind telling me which call this test gave "Cn1cc(-c2ccc3c4ccccc4n(C)c3c2)c2ccccc21" ?
**Result** inactive

**Query** Would you mind telling me which call this test gave "COc1ccccc1NC(=O)Nc1ccccc1" ?
**Result** inactive

**Query** Would you mind telling me which call this test gave C=CCC(C(=O)NC(N)=O)c1ccccc1 (stereo not given) ?
**Result** inactive

**Query** Would you mind telling me which call this test gave Cc1ccc(C2(O)CC(c3ccc([N+](=O)[O-])o3)=NN2C(=O)COc2ccccc2Cl)cc1 (stereo not given) ?
**Result** inactive

**Query** Would you mind telling me which call this test gave "C=C1[C@H](OCC(C)C)[C@@H](OCC(C)C)[C@@H](O)C(C)(C)/C=C/[C@H](C)C(=O)[C@@]2(O)C[C@H](C)[C@H](O)[C@@H]2[C@H]1OCC(C)C" ?
**Result** inactive

**Query** Would you mind telling me which call this test gave "CC(C)(C(=O)O)C(=O)O" ?
**Result** inactive

**Query** Would you mind telling me which call this test gave COc1ccc(C2OC(C)C(C)O2)cc1 (stereo not given) ?
**Result** inactive

**Query** Would you mind telling me which call this test gave COc1ccc(C2c3cc4c(cc3OC(NNS(=O)(=O)c3ccc(C)cc3)C2C)OCO4)cc1 (stereo not given) ?
**Result** inactive

**Query** Would you mind telling me which call this test gave O=c1c2c(nc3n1CCC3)OC(c1ccccc1)C2 (stereo not given) ?
**Result** inactive
